# System: Escherichia coli TOP10;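 note: peptides expressed intracellularly from a pBAD plasmid library in pooled LB shake-flask culture, induced with 0.3% L-arabinose, DNA abundance read by NGS, three biological replicates, DESeq2 with apeglm shrinkage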
# experimentNotes: shrunken log2 fold change of peptide-encoding DNA abundance (4.5 h post-induction vs induction); higher = less antimicrobial activity (less host growth inhibition)
# conditionSummary: time post-induction: 4.5 h; library: site-saturation at positions 5, 18, 19, 20
quantityName: shrunken log2 fold change
Response field accepts a number only; no unit should be typed.

RRIRERPPRLPRPRPRPHILPRP: -0.245

Looking up `RRIRERPPRLPRPRPRPHIDPRP` , I see its shrunken log2 fold change listed as -0.34

According to the records, this sequence `RRIRVRPPRLPRPRPRPIETPRP` displays shrunken log2 fold change of 0.0184

# sequence `RRIRYRPPRLPRPRPRPSVAPRP` ; its shrunken log2 fold change = -0.183
